Taken from the SangsterLogP compilation.

QUANTITY NAME: logP
Answers are plain numbers.

| COMPOUND | EXPERIMENTAL VALUE |
| --- | --- |
| CCCOP(N)(=O)SCCC (configuration not stated) | 1.23 |
| CCNP(=O)(OC)SC (configuration not stated) | 0.07 |
| CCCCNP(=O)(OC)SC (configuration not stated) | 0.94 |
| CCCCCCCCNP(=O)(OC)SC (configuration not stated) | 1.51 |
| COP(=O)(NCC(C)C)SC (configuration not stated) | 0.97 |

List the reported logP of each compound below.
1. CCCCCCNP(=O)(OC)SC (configuration not stated)
2. CCC(C)NP(=O)(OC)SC (configuration not stated)
3. CNP(=O)(OC)SC (configuration not stated)
4. COP(=O)(NC(C)(C)C)SC (configuration not stated)
5. CCOP(N)(=O)SCC (configuration not stated)
6. CCCNP(=O)(OC)SC (configuration not stated)
7. COP(N)(=O)SC (configuration not stated)

Ans:
1.11
0.95
-0.07
0.96
0.15
0.65
-0.66
